- test_name: Distribution coefficient of the compound, log D at pH 7.4
- Assay type: physicochemical
- run_parameters: octanol/water
Criterion: logD meeting or surpassing 2. Met: label 1. Not met: label 0.

Confirm if logD reported for the compound C[C@@H]1CN([C@H](c2ccc(CC(=O)O)cc2)c2cccc(O)c2)[C@@H](C)CN1Cc1ccccc1 is 2 or above.
label 0

Does the compound C[C@@H]1CN([C@H](c2ccc(-c3ccccc3C(=O)O)cc2)c2cccc(O)c2)[C@@H](C)CN1Cc1ccccc1 have recorded logD that is 2 or more?
label 1

Hello, I need to know if C[C@@H]1CN([C@@H](c2cccc(O)c2)c2ccc3c(c2)CN(CCC(=O)O)CC3)[C@@H](C)CN1Cc1ccccc1 has measured logD not below 2. Thanks!
label 1

Decide: logD of C[C@@H]1CN([C@@H](c2cccc(O)c2)c2ccc3c(c2)CN(C(=O)C(=O)O)CC3)[C@@H](C)CN1Cc1ccccc1 >= 2?
label 0

Item COc1cccc([C@@H](c2ccc3c(c2)CN(CCC(=O)O)CC3)N2C[C@@H](C)N(Cc3ccccc3)C[C@@H]2C)c1 with logD of 2 or above?
label 1

Dear colleague, could you confirm whether C[C@@H]1CN([C@@H](c2cccc(O)c2)c2ccc3c(c2)CN(C(=O)CC(=O)O)CC3)[C@@H](C)CN1Cc1ccccc1 has logD at or above 2?
label 0

Has COc1cccc([C@@H](c2ccc3c(c2)CN(CC(=O)O)CC3)N2C[C@@H](C)N(Cc3ccccc3)C[C@@H]2C)c1 a recorded logD greater than or equal to 2?
label 1

Could you tell me if the measured logD of C[C@@H]1CN([C@@H](c2cccc(O)c2)c2ccc3c(c2)CN(CC(=O)O)CC3)[C@@H](C)CN1Cc1ccccc1 reaches 2 or more?
label 1

Does logD meet or surpass 2 for COc1cccc([C@@H](c2ccc3c(c2)CN(C(=O)CC(=O)O)CC3)N2C[C@@H](C)N(Cc3ccccc3)C[C@@H]2C)c1 ?
label 0

Hello, I need to know if C[C@@H]1CN([C@H](c2ccc(CCC(=O)O)cc2)c2cccc(O)c2)[C@@H](C)CN1Cc1ccccc1 has measured logD not below 2. Thanks!
label 1

Origin of the recorded values: ChEMBL document CHEMBL1138105
